Numbers sourced from patent US7396850B2.

target_under_test: PPARα (Homo sapiens)
Sequence (Q07869 201-468 limits assumed): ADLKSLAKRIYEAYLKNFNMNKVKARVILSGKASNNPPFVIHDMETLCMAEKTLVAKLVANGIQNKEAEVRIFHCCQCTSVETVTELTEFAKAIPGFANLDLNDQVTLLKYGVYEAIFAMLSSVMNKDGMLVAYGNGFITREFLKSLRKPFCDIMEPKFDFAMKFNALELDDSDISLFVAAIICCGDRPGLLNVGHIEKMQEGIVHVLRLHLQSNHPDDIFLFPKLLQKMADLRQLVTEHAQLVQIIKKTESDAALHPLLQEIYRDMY
assay_explanation: PPAR cotransfection (transactivation) assay in CV-1 cells, GAL4 chimeric system
parameter: pEC50
Units for pEC50: none; it is -log10 of a concentration expressed in mol/L.

I am curious: what pEC50 value has been reported for Cc1cc(SCc2cn(-c3ccc(C(F)(F)F)cc3)nc2C)ccc1OCC(=O)O [Formula 1] ? 5.74

###

target_under_test: PPARγ (Homo sapiens, UniProt P37231)
Sequence (P37231 1-505): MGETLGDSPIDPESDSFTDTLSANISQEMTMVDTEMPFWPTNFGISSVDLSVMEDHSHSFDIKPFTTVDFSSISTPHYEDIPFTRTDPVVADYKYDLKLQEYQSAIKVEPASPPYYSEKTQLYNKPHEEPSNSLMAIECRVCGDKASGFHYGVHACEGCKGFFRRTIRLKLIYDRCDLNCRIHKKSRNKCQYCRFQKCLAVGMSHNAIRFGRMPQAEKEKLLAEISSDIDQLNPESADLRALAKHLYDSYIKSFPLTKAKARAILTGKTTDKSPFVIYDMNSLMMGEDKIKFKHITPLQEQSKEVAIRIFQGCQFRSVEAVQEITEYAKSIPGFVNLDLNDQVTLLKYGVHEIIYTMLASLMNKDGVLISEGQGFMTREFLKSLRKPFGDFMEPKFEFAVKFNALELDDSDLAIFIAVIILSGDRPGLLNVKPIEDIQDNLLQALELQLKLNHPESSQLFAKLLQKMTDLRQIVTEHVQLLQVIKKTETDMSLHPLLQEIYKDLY
assay_explanation: PPAR cotransfection (transactivation) assay in CV-1 cells
Protocol: DNA-dependent binding is carried out using SPA technology with PPAR receptors. Tritium-labeled PPARα agonists are used as radioligands for generating displacement curves and IC50 values with compounds of the invention. Cotransfection assays are carried out in CV-1 cells. […] Cotransfection efficacy is determined relative to PPAR agonist reference molecules. Efficacies are determined by computer fit to a concentration-response curve, or in some cases at a single high concentration of agonist (10 μM). […]
parameter: pEC50
Worth noting: pEC50 values are minus log10 of concentrations stated in mol/L.

I am curious: what pEC50 value has been reported for Cc1cc(SCc2cn(-c3ccc(C(F)(F)F)cc3)nc2C)ccc1OCC(=O)O ? 5.59

###

target_under_test: PPARδ (Homo sapiens, UniProt Q03181)
Sequence (Q03181 whole entry): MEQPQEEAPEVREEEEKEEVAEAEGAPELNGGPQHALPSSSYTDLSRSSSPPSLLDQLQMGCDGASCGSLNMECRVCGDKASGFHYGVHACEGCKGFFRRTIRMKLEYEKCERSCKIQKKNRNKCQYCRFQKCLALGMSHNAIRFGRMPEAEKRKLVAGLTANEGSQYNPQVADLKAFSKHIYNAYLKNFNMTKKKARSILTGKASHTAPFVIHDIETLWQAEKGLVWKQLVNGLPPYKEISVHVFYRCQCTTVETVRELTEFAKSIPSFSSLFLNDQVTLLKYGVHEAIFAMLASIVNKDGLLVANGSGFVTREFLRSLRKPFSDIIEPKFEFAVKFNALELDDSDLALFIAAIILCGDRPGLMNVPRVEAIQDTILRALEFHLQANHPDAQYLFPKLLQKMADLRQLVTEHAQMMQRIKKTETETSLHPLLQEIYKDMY
assay_explanation: PPAR cotransfection (transactivation) assay in CV-1 cells
parameter: EC50 (nM)
The response must be a number in nM with no trailing unit.

Any idea what EC50 was measured for Cc1cc(SCc2cn(-c3ccc(C(F)(F)F)cc3)nc2C)ccc1OCC(=O)O ? 20
